Catalogue of IC50 readings, one per entry.
Biological target: oestrogen receptor (ER) (Homo sapiens, UniProt P03372)
Construct: These MVLN cells express, along with the functional oestrogen receptor (ER), a reporter construct; endogenous in cells
Sequence (P03372 whole entry): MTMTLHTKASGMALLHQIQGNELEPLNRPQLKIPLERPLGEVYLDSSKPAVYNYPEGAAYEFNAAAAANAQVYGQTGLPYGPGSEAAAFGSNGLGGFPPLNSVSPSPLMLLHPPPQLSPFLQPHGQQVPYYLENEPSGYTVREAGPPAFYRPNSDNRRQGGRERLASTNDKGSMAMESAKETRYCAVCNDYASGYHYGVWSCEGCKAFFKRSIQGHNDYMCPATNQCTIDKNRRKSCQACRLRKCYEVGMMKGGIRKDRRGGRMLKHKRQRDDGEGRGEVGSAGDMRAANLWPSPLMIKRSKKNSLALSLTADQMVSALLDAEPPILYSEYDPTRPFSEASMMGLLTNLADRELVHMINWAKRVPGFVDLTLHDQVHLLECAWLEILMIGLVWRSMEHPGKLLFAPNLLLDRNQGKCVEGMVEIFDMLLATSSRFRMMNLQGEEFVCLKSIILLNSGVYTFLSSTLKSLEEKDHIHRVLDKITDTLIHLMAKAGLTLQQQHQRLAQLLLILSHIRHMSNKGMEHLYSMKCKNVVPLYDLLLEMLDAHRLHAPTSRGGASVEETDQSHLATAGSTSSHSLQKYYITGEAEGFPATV
Experiment: Anti-oestrogenic action in MVLN cells (inhibition of estradiol-induced luciferase, transactivation antagonism)
Conditions: inhibition of estradiol-induced luciferase activity, read-out: Anti-oestrogenic action in vitro: MVLN transactivation antagonism IC50
Provide the reading as a plain figure in nM.

{"columns": ["molecule", "IC50 [nM]"],
 "data": [
  ["CN(CCCCCCC1=C(c2cccc(O)c2)CCCc2cc(O)ccc21)CCCS(=O)(=O)CCCC(F)(F)F", 2]
]}

Q: Identify measured IC50 corresponding to `CCN(CCCCCCC1=C(c2cccc(O)c2)CCCc2cc(O)ccc21)CCCS(=O)(=O)CCCC(F)(F)C(F)(F)F`
Ans: 2

Q: Specify measured IC50 for CN(CCCCCCC1=C(c2cccnc2)CCCc2cc(O)ccc21)CCC[S+]([O-])CCCC(F)(F)C(F)(F)F (racemic) .
Ans: 8

Q: Answer with reported IC50 of CN(CCCCCCC1=C(c2ccc(F)c(O)c2)CCCc2cc(O)c(F)cc21)CCC[S+]([O-])CCC(F)(F)F (racemic)
Ans: 16

====

Biological target: oestrogen receptor (ER) (Homo sapiens)
Construct: These MVLN cells express, along with the functional oestrogen receptor (ER), a reporter construct; endogenous in cells
Assay: Anti-oestrogenic action in MVLN cells (inhibition of estradiol-induced luciferase, transactivation antagonism)
Conditions: inhibition of estradiol-induced luciferase activity, read-out: Anti-oestrogenic action in vitro: MVLN transactivation antagonism IC50
readout: pIC50
Quick note: pIC50 means taking -log10 of the concentration in moles per liter.

{"columns": ["compound", "pIC50"],
 "data": [
  ["CN(CCCCCCS(=O)(=O)CCCC(F)(F)C(F)(F)F)CCCCCC1=C(c2cccc(O)c2)CCCc2cc(O)ccc21 [Example 11]", 8.40],
  ["CN(CCCCCCC1=C(c2ccc(F)c(O)c2)CCCc2cc(O)ccc21)CCCCS(=O)(=O)CCCC(F)(F)C(F)(F)F [Example 31]", 8.52],
  ["CN(CCCCCCC1=C(c2cccc(O)c2)CCCc2cc(O)ccc21)CCCC[S+]([O-])CCCC(F)(F)C(F)(F)F (racemic) [Example 14]", 8.70],
  ["CCN(CCCCCCC1=C(c2cccc(O)c2)CCCc2cc(O)ccc21)CCC[S+]([O-])CCCC(F)(F)C(F)(F)F (racemic) [Example 86]", 9.00],
  ["CN(CCCCCCC1=C(c2ccc(C#N)cc2)CCCc2cc(O)ccc21)CCCS(=O)(=O)CCCC(F)(F)C(F)(F)F [Example 22]", 7.77]
]}

Q: # return recorded pIC50 for input CN(CCCCCCC1=C(c2cccc(S(C)(=O)=O)c2)CCCc2cc(O)ccc21)CCC[S+]([O-])CCCC(F)(F)C(F)(F)F (racemic) [Example 21]
Ans: 8.30

Q: Look up pIC50 of CN(CCCCCCC1=C(c2ccccc2)CCCc2cc(O)ccc21)CCCS(=O)(=O)CCC(F)(F)F [Example 60] and report it.
Ans: 7.59

====

Tested on: uterus growth induced by 17β-estradiol
Test: Anti-uterus growth test in the adult rat
Format: in vivo
Details: sc; ovariectomized adult rat, 0.3 mg/kg s.c. d1-d3 with 1.5 μg/kg/day 17β-estradiol; percentage inhibition of uterus growth; read-out: Anti-oestrogenic activity in vivo in % at a dose of 0.3 mg/kg (rat)
Listed below: inhibition in vivo at 0.3 mg/kg values for each entry.
Answer with a number only, understood to be in %.

Some solved cases for reference:
{"columns": ["compound", "inhibition in vivo at 0.3 mg/kg / %"],
 "data": [
  ["CN(CCCCCC1=C(c2ccc(O)c(F)c2)CCCc2cc(O)ccc21)CCCS(=O)(=O)CCCC(F)(F)C(F)(F)F", 57],
  ["CN(CCCCCCC1=C(c2ccc(F)c(O)c2)CCCc2c1ccc(O)c2Cl)CCCS(=O)(=O)CCCC(F)(F)C(F)(F)F", 14]
]}

Q: Give the value of inhibition in vivo at 0.3 mg/kg reported for the following: `CN(CCCCCCC1=C(c2cc(O)ccc2F)CCCc2cc(O)ccc21)CCCS(=O)(=O)CCCC(F)(F)C(F)(F)F`
Ans: 77

Q: Please indicate inhibition in vivo at 0.3 mg/kg recorded for `CN(CCCCCCC1=C(c2cccc(O)c2)CCCc2cc(O)ccc21)CCCS(=O)(=O)CCCC(F)(F)C(F)(F)F`
Ans: 79

Q: Quick one: give measured inhibition in vivo at 0.3 mg/kg for `CN(CCCCCCC1=C(c2ccc(S(C)(=O)=O)cc2)CCCc2cc(O)ccc21)CCCS(=O)(=O)CCCC(F)(F)C(F)(F)F`
Ans: 72

Q: Annotate the compound `CN(CCCCCCC1=C(c2cccc(O)c2)CCCc2cc(O)ccc21)CCCCCCS(=O)(=O)CCCC(F)(F)C(F)(F)F` with its measured inhibition in vivo at 0.3 mg/kg.
Ans: 38

Q: Using the record for `CN(CCCCCCC1=C(c2cccc(O)c2)CCCc2cc(O)ccc21)CCCS(=O)(=O)CCC(F)(F)F` , state its measured inhibition in vivo at 0.3 mg/kg.
Ans: 33

Q: Given CN(CCCCCC1=C(c2cccc(O)c2)CCCc2cc(O)ccc21)CCCC[S+]([O-])CCCC(F)(F)C(F)(F)F (racemic) , respond with its inhibition in vivo at 0.3 mg/kg.
Ans: 22

Q: Name the recorded inhibition in vivo at 0.3 mg/kg of the compound listed here: CN(CCCCCCC1=C(c2cccc(S(C)(=O)=O)c2)CCCc2cc(O)ccc21)CCC[S+]([O-])CCCC(F)(F)C(F)(F)F (racemic)
Ans: 37

Q: Dear colleague, please send me the reported inhibition in vivo at 0.3 mg/kg for `CN(CCCCCCC1=C(c2ccc(O)cc2)CCCc2cc(O)ccc21)CCCS(=O)(=O)CCCC(F)(F)C(F)(F)F` when you can.
Ans: 80

Q: Look up and state reported inhibition in vivo at 0.3 mg/kg for CN(CCCCCCC1=C(c2ccccc2)CCCc2cc(O)ccc21)CCC[S+]([O-])CCCC(F)(F)C(F)(F)F (racemic)
Ans: 85

Q: Write down inhibition in vivo at 0.3 mg/kg measured for item `CN(CCCCCCC1=C(c2ccc(F)c(O)c2)CCCc2cc(O)ccc21)CCCS(=O)(=O)CCCC(F)(F)C(F)(F)F`
Ans: 61

Q: Look up inhibition in vivo at 0.3 mg/kg of `CN(CCCCCC1=C(c2cccc(O)c2)CCCc2cc(O)ccc21)CCCCS(=O)(=O)CCCC(F)(F)C(F)(F)F` and report it.
Ans: 31

Q: Note inhibition in vivo at 0.3 mg/kg for the compound shown: CN(CCCCCC1=C(c2ccc(O)c(F)c2)CCCc2cc(O)ccc21)CCC[S+]([O-])CCCC(F)(F)C(F)(F)F (racemic)
Ans: 59
